Provenance of the data: patent US9458173B2

Assay: Solubility studies, shake flask method with HPLC quantification
Format: physicochemical
Settings: FeSSIF (fed state simulated intestinal fluid), thermodynamic from solid; FeSSIF (pH 5.0), 37° C., 200 rpm, about 15 minutes; read-out: Solubility (Conc.)

[
  {
    "molecule": "Cn1c(=O)c2c(CC(=O)Nc3nc(-c4ccc(F)c(C(F)(F)F)c4F)cs3)csc2n(C)c1=O [Compound (II)]",
    "solubility, µg/mL": 0.06
  }
]

----------
Test: Solubility studies, shake flask method with HPLC quantification
Assay type: physicochemical
Details: FaSSIF (fasted state simulated intestinal fluid), thermodynamic from solid; FaSSIF (pH 6.5), 37° C., 200 rpm, about 15 minutes; read-out: Solubility (Conc.)

[
  {
    "compound": "Cn1c(=O)c2c(CC(=O)Nc3nc(-c4ccc(F)c(C(F)(F)F)c4F)cs3)csc2n(C)c1=O [Compound (II)]",
    "uom": "µg/mL",
    "solubility": 0.16
  }
]

----------
Experiment: Solubility studies, shake flask method with HPLC quantification
Assay type: physicochemical
Details: thermodynamic from solid; Water, 37° C., 200 rpm, about 15 minutes; read-out: Solubility (Conc.)

[
  {
    "molecule": "Cn1c(=O)c2c(CC(=O)Nc3nc(-c4ccc(F)c(C(F)(F)F)c4F)cs3)csc2n(C)c1=O",
    "solubility": "0.1 µg/mL"
  }
]
